meta.source: PubChem BioAssay

- experiment_notes: sensitizers of A549 cells to miR-34 induction, primary screen, imaging, A549 dox-inducible miR-34, nuclei and caspase counts (AID 1347080); also: test concentration not given here
- test_conditions: A549 miR-34 inducible, Hoechst nuclei count, 48 h; hits give low values; cell number ratio, induced over uninduced
result_type: fold change
Provide a numeric answer; units are not to be included.

Record CC(C)c1nc(N(C)S(C)(=O)=O)nc(-c2ccc(F)cc2)c1/C=C/[C@@H](O)C[C@@H](O)CC(=O)O , field fold change: 0.858

Record OCc1ccccc1O[C@@H]1O[C@H](CO)[C@@H](O)[C@H](O)[C@H]1O , field fold change: 0.934

Record CCN1CCc2nc(N)oc2CC1 , field fold change: 1.02

Record Cc1ccc(-c2ncc(Cl)cc2-c2ccc(S(C)(=O)=O)cc2)cn1 , field fold change: 0.833

Record CN(C)CCN(Cc1ccc(Cl)cc1)c1ccccn1 , field fold change: 0.853

Record C[C@H]1O[C@@H](O[C@H]2[C@@H](O)C[C@H](O[C@H]3[C@@H](O)C[C@H](O[C@H]4CC[C@@]5(C)[C@H](CC[C@@H]6[C@@H]5C[C@@H](O)[C@]5(C)[C@@H](C7=CC(=O)OC7)CC[C@]65O)C4)O[C@@H]3C)O[C@@H]2C)C[C@H](O)[C@@H]1O , field fold change: 0.979

Record C[C@H](CCC(=O)O)[C@H]1CC[C@H]2[C@@H]3CC[C@@H]4C[C@H](O)CC[C@]4(C)[C@H]3CC[C@]12C , field fold change: 0.876

Record N[C@@H](Cc1c[nH]c2ccccc12)C(=O)O , field fold change: 0.995

Record NS(=O)(=O)c1ccc(C(=O)O)cc1 , field fold change: 0.907
